assay: inhibitors of hydroxyurea-induced Chk1 phosphorylation, primary screen, imaging, HeLa, phospho-Chk1 antibody, percent positive cells (AID 1186); conditions: hydroxyurea-induced phospho-Chk1 immunofluorescence imaging, higher = more signal
Just so you know, the groups by z-score go like this: bucket 1 = under -0.3, bucket 2 = from -0.3 up to 0.2, bucket 3 = 0.2 and over

## Task Into which bin does this compound go? [N-]=[N+]=NCc1ccccc1C[C@]1(C(=O)NCC(O)CO)N=C(c2ccc(OCCCO)cc2)O[C@H]1c1ccccc1 (stereo partly drawn)
## Result bucket 2

## Task One more compound: `C=CCOC(=O)[C@H]1[C@@H]2C(=O)O[C@@H](c3ccccc3)[C@@H](c3ccccc3)N2[C@@H](c2ccc(OCCOC(=O)[C@@H]3C[C@@H]4C(=O)N[C@@H](CCCC[N+](C)(C)C)C(=O)N4[C@@H]3c3ccc(O)cc3)cc2)[C@]12C(=O)Nc1ccccc12`
## Result bucket 1

## Task One more compound: CCOC(=O)[C@H]1CC=C2CC1C(=O)N1CCC[C@@H]1[C@@H]2O[Si](C)(C)C(C)(C)C (stereo partly drawn)
## Result bucket 1

## Task One more compound: `COc1ccc([Si](C)(C)[C@H]2[C@H](CCO)O[C@@]3(C(=O)N(C)c4c(Br)cc(C)cc43)[C@@H]2C)cc1`
## Result bucket 1

## Task One more compound: `COCCOC(=O)N1C(=O)[C@@]2(c3cc(C#CCCO)ccc31)[C@H](c1ccc(OCCO)cc1)N1[C@H](c3ccccc3)[C@H](c3ccccc3)OC(=O)[C@H]1[C@@H]2C(=O)N1CCN(c2ncccn2)CC1`
## Result bucket 2

## Task One more compound: `O=C1O[C@@H](c2ccccc2)[C@@H](c2ccccc2)N2[C@@H](c3ccc(OCCO)cc3)[C@]3(C(=O)Nc4ccccc43)[C@@H](C(=O)NC[C@H](O)c3ccccc3)[C@H]12`
## Result bucket 2

----------
target: Dickkopf-related protein 1 (Homo sapiens); experiment: DKK1 binders on small-molecule microarrays, primary screen, biochemical, small-molecule microarray, 635 nm fluorescence scan (AID 1106); conditions: DKK1 binding, higher = more signal;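 further: score merges emission near 667 nm with signal to noise over three replicate slides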
Measured composite z-score values are reported for all entries that follow.
Form: value (number only, do not type unit).

## Task Lab note: need composite z-score with Dickkopf-related protein 1 (Homo sapiens) for entry `CC(=O)NCCCC[C@@H]1NC(=O)[C@@H]2C[C@H](C(=O)NCCCCN(C)C)[C@H](c3cccc(OCCO)c3)N2C1=O` , please look it up.
## Result 0.0332

## Task One more compound: COc1cc(OC)c(C(O)C2C=CC3C(=O)NC(=O)C3N2Nc2ccc(Cl)cc2Cl)cc1Br (stereo unspecified)
## Result -0.985

## Task One more compound: COc1ccc(COC2OC[C@]3(C)[C@H]4C5=C(CN3C(=O)OC(C)(C)C)[C@H](C)C(CO)C(CO)C5CC[C@@H]24)cc1 (stereo partly specified)
## Result -0.432

## Task One more compound: `COc1cc2c(cc1O)C=[N+](Cc1cccc(OC(F)(F)F)c1)CC2`
## Result 0.141

## Task One more compound: `CCCC#C[Si](O[C@H](CC)c1cn([C@H](CO)Cc2ccccc2)nn1)(C(C)C)C(C)C`
## Result 0.82

## Task One more compound: C=CCC(OC(C)=O)[C@@H]1[C@@H](N(Cc2cccc3ccccc23)C(=O)c2ccc(-c3ccccc3)cc2)c2cc(OCCCO)ccc2N1C(=O)Cc1ccc(OC)cc1 (stereo partly specified)
## Result 0.0533
